Tested on: HRV16
protocol-notes: HRV16 HELA EC50 (cytopathic effect in H1-HeLa cells)
Type: cell-based
conditions-used: 96 h, H1-HeLa cells, 33° C., read-out: HRV16 HELA EC50
pEC50: −log10 of the molar value.
Mark Satisfied for reported pEC50 of 6 or greater; mark Not satisfied for anything smaller.

Use the examples below as a reference point.
molecule: CCCCCCCCCCCCCCCCOCCCNP(=O)(OC[C@@]1(C#N)O[C@@H](c2ccc3c(N)ncnn23)[C@H](O)[C@@H]1O)Oc1ccccc1 (stereo partly shown) [Example 187]
group: Not satisfied

molecule: CCCCCCOC(=O)[C@H](C)NP(=O)(OC[C@@]1(C#N)O[C@@H](c2ccc3c(N)ncnn23)[C@H](O)[C@@H]1O)Oc1ccccc1 (stereo partly shown) [Example 192]
group: Satisfied

molecule: CCCOC(=O)[C@H](C)N[P@](=O)(OC[C@@]1(C#N)O[C@@H](c2ccc3c(N)ncnn23)[C@H](O)[C@@H]1O)Oc1ccccc1 [Example 45]
group: Satisfied

molecule: CCCCCOC(=O)C[C@H](NP(=O)(OC[C@@]1(C#N)O[C@@H](c2ccc3c(N)ncnn23)[C@H](O)[C@@H]1O)Oc1ccccc1)C(=O)OCCCCC (stereo partly shown) [Example 215]
group: Not satisfied

molecule: C[C@H](N)C(=O)OCCNP(=O)(OC[C@@]1(C#N)O[C@@H](c2ccc3c(N)ncnn23)[C@H](O)[C@@H]1O)Oc1ccccc1 (stereo partly shown) [Example 133]
group: Not satisfied

molecule: C[C@H](NP(=O)(OC[C@@]1(C#N)O[C@@H](c2ccc3c(N)ncnn23)[C@H](O)[C@@H]1O)Oc1ccccc1)C(=O)OC1CCC(C)(C)CC1 (stereo partly shown) [Example 183]
group: Satisfied

Reported pEC50 at or above 6? C[C@@H](NP(=O)(OC[C@@]1(C#N)O[C@@H](c2ccc3c(N)ncnn23)[C@H](O)[C@@H]1O)Oc1ccccc1)C(=O)O[C@@H]1CCN(C(=O)OC(C)(C)C)C1 (stereo partly shown) [Example 140]
Not satisfied

Identify whether the reported pEC50 of the following molecule is 6 or greater: CCC(CC)COC(=O)[C@H](C)N[P@](=O)(OC[C@@]1(C#N)O[C@@H](c2ccc3c(N)ncnn23)[C@H](O)[C@@H]1O)Oc1ccccc1 (single isomer, unassigned) [Example 25]
Satisfied
